The values you see were collected from PubChem BioAssay AID1885.

inhibition values for the compounds below.
- protocol: inhibitors of intracellular T. cruzi growth, primary screen, luminescence, NIH3T3 host cells (AID 1885);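 further: signal also drops with host cell toxicity which is not excluded here; 0% = plate median of DMSO wells and 100% = zero luminescence signal; higher percent means less beta-gal luminescence so fewer parasites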
- studyConditions: T. cruzi beta-gal in NIH3T3, luminescence, 90 h; hits give high values; concentration not given here
Among all 300,000 compounds or so, about 4,400 (1.5%) were called active. Only a selection was taken, and actives are over-represented in it overall.

{"compound": "CC(C)(C)c1cc(C(=O)N/N=C/c2ccc([N+](=O)[O-])s2)n[nH]1", "inhibition [%]": 57.6}
{"compound": "CN(C)CCCN(C(=O)c1ccc(S(=O)(=O)N2CCCCCC2)cc1)c1nc2ccc(Br)cc2s1", "inhibition [%]": 23.2}
{"compound": "O=S(=O)(NCCS(=O)(=O)N1CCN(c2ccccc2)CC1)c1ccc(F)cc1", "inhibition [%]": -2.33}
{"compound": "O=C(NCCc1csc(-c2ccccc2)n1)c1ccccc1F", "inhibition [%]": 66.1}
{"compound": "Cc1cc(Nc2cc(N3CCN(C)CC3)nc(Sc3ccc(NC(=O)C4CC4)cc3)n2)n[nH]1", "inhibition [%]": 26.9}
{"compound": "c1ccc(CCc2nc(-c3ccncc3)no2)cc1", "inhibition [%]": -6.81}
{"compound": "Cc1cc(C(=O)N/N=C/c2cc([N+](=O)[O-])cc(C)c2O)n[nH]1", "inhibition [%]": -40.2}
{"compound": "O=C(Cc1ccc(S(=O)(=O)N2CCOCC2)s1)NCCOc1ccccc1F", "inhibition [%]": 5.5}
{"compound": "CCCN(CC(=O)Nc1ccccc1OC)C(=O)CCC(=O)c1ccc(F)cc1", "inhibition [%]": 0.665}
{"compound": "Cc1cc(Cl)ccc1OCc1nc(-c2ccncc2)no1", "inhibition [%]": 74.8}
{"compound": "CC(C)(C)NC(=O)Cn1cnc2cc([N+](=O)[O-])ccc2c1=O", "inhibition [%]": 33.5}
{"compound": "COc1cc(C(=O)NCC(=O)NCCSc2ccc(Br)cc2)cc(OC)c1OC", "inhibition [%]": -6.77}
{"compound": "COc1ccc(CCNC(=O)C(=O)NCC2CCCN2S(=O)(=O)c2cccs2)cc1OC (configuration not stated)", "inhibition [%]": 17.5}
{"compound": "O=C(Nc1cccc(-c2nc3ncccc3o2)c1)c1ccco1", "inhibition [%]": 69.4}
{"compound": "COc1ccccc1OCC(=O)Nc1ccccc1C(=O)NC1CC1", "inhibition [%]": -5.39}
{"compound": "O=C(Cn1cnc2cc([N+](=O)[O-])ccc2c1=O)NC(=O)NCc1ccccc1", "inhibition [%]": 62.3}
{"compound": "COc1ccccc1C(=O)NC(=O)COC(=O)C1CC1", "inhibition [%]": 5.64}
{"compound": "CSc1ccc(/C=C2\\NC(=O)NC2=O)cc1", "inhibition [%]": -13.1}
{"compound": "COc1cccc(NC(=S)NCc2ccccn2)c1", "inhibition [%]": 4.96}
{"compound": "CN(c1ccccc1)S(=O)(=O)c1cccc(C(=O)NNC(=O)c2ccncc2)c1", "inhibition [%]": 5.43}
{"compound": "CSc1cccc(NC(=S)N(Cc2ccccc2)Cc2ccccn2)c1", "inhibition [%]": 2.49}
{"compound": "O=C(Cn1cnc2c(cnn2-c2ccccc2)c1=O)NCc1ccccc1", "inhibition [%]": -38.8}
